biological target: anti-CD28 Fab; experiment: competition ELISA, peptide titrated 0-100 uM against 1 nM anti-CD28 Fab, plate-bound CD28 as competitor
Sequence (VH, as listed by the source, chain 1 of 2): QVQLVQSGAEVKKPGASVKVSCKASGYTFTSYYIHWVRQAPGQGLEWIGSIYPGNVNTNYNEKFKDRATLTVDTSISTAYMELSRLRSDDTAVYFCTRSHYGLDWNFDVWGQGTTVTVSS
Sequence (VL, as listed by the source, chain 2 of 2): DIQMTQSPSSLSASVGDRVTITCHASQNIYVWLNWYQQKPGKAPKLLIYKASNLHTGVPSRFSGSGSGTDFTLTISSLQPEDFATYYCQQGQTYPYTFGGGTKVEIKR
pIC50: −log10 of the molar value.
In this section we review reported pIC50 values for a set of binders.

- Binder: "YCAGAAWQYINKCL [Peptide-109]"
  pIC50: "< 4.00"

*Q* What value of pIC50 has been reported for the following binder? SCAAGASAAWPYCL [Peptide-102]
*A* < 4.00

*Q* What value of pIC50 has been reported for the following binder? SCAAGASYAAPYCL [Peptide-103]
*A* < 4.00

*Q* What value of pIC50 has been reported for the following binder? YCAGHAWQYIAKCL [Peptide-114]
*A* 5.26

*Q* What value of pIC50 has been reported for the following binder? YCAGHAWQYINACL [Peptide-115]
*A* < 4.00

*Q* What value of pIC50 has been reported for the following binder? SCAAAASYAWPYCL [Peptide-100]
*A* < 4.00

*Q* What value of pIC50 has been reported for the following binder? SCAAGASYAWPACL [Peptide-105]
*A* 4.89

*Q* What value of pIC50 has been reported for the following binder? YCAAHAWQYINKCL [Peptide-108]
*A* < 4.00
